test system: MS2 coat protein; assay: apparent Kd, MS2 coat protein; higher = weaker binding; RNA-MaP array; FMN 200 µM where present; details: designed as: OFF switch for flavin mononucleotide; no ligand
Class (required): determined from apparent Kd; valid ranges are bottom bin (below 20 nM), middle bin (20 nM to below 50 nM), top bin (50 nM or more)

[
  {
    "SEQUENCE": "GAUAGGACAGAGAAGGUACGUGCUAGAGAUACUAGCAAAAUACCUCAACAUGAGGAUCACCCAUGUAAGGAUAUCUGUCCUAUC",
    "ANSWER LABEL": "bottom bin"
  },
  {
    "SEQUENCE": "UUUGAAUAAGUGAGGAUAUACUGUUAGUAUUGAUUGUAGAAGGUACAUGAGGAUCACCCAUGUUUAGUAUUUAU",
    "ANSWER LABEL": "bottom bin"
  },
  {
    "SEQUENCE": "UUUUCUUUUGUGAGGAUAUACUUGUUUUUUUUUUUGUAGAAGGCACAUGAGGAUCACCCAUGUUUUCUUUCCUG",
    "ANSWER LABEL": "bottom bin"
  },
  {
    "SEQUENCE": "AAUAUAGAGCUGGAAUAAAACAUCACAUGAGGAUCACCCAUGUAGGAUAUCAGCACGAUAAGUGCUGAGAAGGACAUCCAGCUC",
    "ANSWER LABEL": "bottom bin"
  },
  {
    "SEQUENCE": "GGCUGGUGACAGCAUCCAUCAAAACAUGAGGAUCACCCAUGUAGAAGGCUGUACGGUUACCGUACAGAGGAUAUACAAUGAUGC",
    "ANSWER LABEL": "bottom bin"
  },
  {
    "SEQUENCE": "UAUUUAAGAGGAUAUACAUGAGGAUCACCCAUGUAUAUUAAUAUACAUGAUUUUUUAUGUAGAAGGCUUGGGUA",
    "ANSWER LABEL": "middle bin"
  },
  {
    "SEQUENCE": "UUGAGUUAGCAGGAUAUGGGCAGCAGGAUGCUUCCAGAAGGGCUGACAUGAGGAUCACCCAUGUUCCCAUGCUU",
    "ANSWER LABEL": "middle bin"
  },
  {
    "SEQUENCE": "UAGUAUAAGGGCAUUAAACAUGAGGAUCACCCAUGUACGUUAGAGGAUAUGCAUUUCAGUUGAGAGUAGAAGGUUAGAGAAGGG",
    "ANSWER LABEL": "middle bin"
  },
  {
    "SEQUENCE": "GUGAAACAUGAGGAUCACCCAUGUGAGGAUAUGAUACUAUGUACUUCGGUACAUAGUAUCAGAAGGCACAGUGA",
    "ANSWER LABEL": "top bin"
  },
  {
    "SEQUENCE": "AACAAACAUGAGGAUCACCCAUGUCAGGAUAUGGCGGCUAGUGUGCCACCGUACACUACCAGAAGGGACUGGGU",
    "ANSWER LABEL": "top bin"
  },
  {
    "SEQUENCE": "AUUAGUAUCUAGGAUAUCUAGUACAUAGUAUCUAGAGAAGGAGAUACAUGAGGAUCACCCAUGUUCUGUGAUCU",
    "ANSWER LABEL": "top bin"
  },
  {
    "SEQUENCE": "AAAUAAGUUGCAGGAUAUUAUUUAUAAUAUAUAUAAGAAGGGCAACAAACCUCACAUGAGGAUCACCCAUGUACCCAUGCAUCU",
    "ANSWER LABEL": "top bin"
  },
  {
    "SEQUENCE": "UUUUUGUGAGGAUAUUAGUAGUAAAUAAAUAAAAUUACUACUGAGAAGGCACAUGAGGAUCACCCAUGUUCCUC",
    "ANSWER LABEL": "middle bin"
  },
  {
    "SEQUENCE": "UGAUAACAUGUAGGAUAUCCAGCAUUGACCAUCGGAGAAGGACAUGAGGAUCACCCAUGUACCGAUACAAUGGGAUAAGGGAAU",
    "ANSWER LABEL": "bottom bin"
  },
  {
    "SEQUENCE": "UUUAGUUCAGGAUAUGUAGAUUUUAACAUGAGGAUCACCCAUGUAGAUCCUGAAUUAACUACAGAAGGGAACAUUC",
    "ANSWER LABEL": "bottom bin"
  },
  {
    "SEQUENCE": "GUAUAUAGUGUGAGGAUAUGCUGGUCCUUGGAUCAGCAGAAGGCACAUGAGGAUCACCCAUGUAGUUUAUUUUG",
    "ANSWER LABEL": "bottom bin"
  },
  {
    "SEQUENCE": "ACUUGUUACUUAUUCAUUGAUUUGUAGGAUAUACGUACAUGAGGAUCACCCAUGUUACAUGUUAUGUAGAAGGACAUCUAAUUU",
    "ANSWER LABEL": "bottom bin"
  },
  {
    "SEQUENCE": "UAUAUAUAGGCAGGAUAUACAUGUAUAUAUAAUAUAUUAUAUAAUAUAACAUGAGGAUCACCCAUGUAGAAGGGCCAUAAUAUA",
    "ANSWER LABEL": "top bin"
  },
  {
    "SEQUENCE": "AACUAUGAAUUGAUAGUGUCUGACAGAAGGCAAUAGGUUGUGACCGACAUGAGGAUCACCCAUGUUGAGGAUAUGUCUAGCUAC",
    "ANSWER LABEL": "top bin"
  },
  {
    "SEQUENCE": "AUCCUGCGAGGAUAUACAUAAUUUUUUUCAUUUGGUUGCGAACAUGAGGAUCACCCAUGUAGAAGGUGCUUCAC",
    "ANSWER LABEL": "top bin"
  },
  {
    "SEQUENCE": "UUGCCCGCCGGAGGAUAUCUACUCUGUGGUGCACUGCGUUUGCAAUACAUGAGGAUCACCCAUGUAGAGAAGGCCGAGGGCACA",
    "ANSWER LABEL": "top bin"
  },
  {
    "SEQUENCE": "UACCGCCGCACGGACGCGUUGAGUCAGGAUAUACAUGAGGAUCACCCAUGUGAAGGCCGGCUCAUGUAGAAGGGACAAGCGUUG",
    "ANSWER LABEL": "bottom bin"
  },
  {
    "SEQUENCE": "UUUUAACAUGAGGAUCACCCAUGUGAGGAUAUCGAAAUUUAUAUUAAUAUUAAUUAAUCGAGAAGGCACAUUUU",
    "ANSWER LABEL": "top bin"
  },
  {
    "SEQUENCE": "CGCACUUAUAGAGGAUAUGUUGUACAUGAGGAUCACCCAUGUGUUUUUGUAUCAAUAUUAGUGAAACAGAAGGCUAUUUGUGCG",
    "ANSWER LABEL": "bottom bin"
  },
  {
    "SEQUENCE": "AACGUGUGAGGAUAUUAGUUGUACGUCAAUAGACGUAUAAGUGAGAAGGCACAUGAGGAUCACCCAUGUUCCUG",
    "ANSWER LABEL": "middle bin"
  },
  {
    "SEQUENCE": "GUCUCAGCUGAGGAUAUUAUCUGGCUCGACCGAUAAGAAGGCAGUACAUGAGGAUCACCCAUGUGGUUCGUUCG",
    "ANSWER LABEL": "middle bin"
  },
  {
    "SEQUENCE": "GCGUCACAAUUAGAACCGAUACGAACAUGAGGAUCACCCAUGUAGGAUAUGCUAGAAGUUGAGUUGCAGAAGGACAUUUAUCGC",
    "ANSWER LABEL": "bottom bin"
  },
  {
    "SEQUENCE": "ACGACUAGAGGAUAUACAUGAGGAUCACCCAUGUAACUGUCAGGAAACUGACGGAGAUGUAGAAGGCUAGUCGA",
    "ANSWER LABEL": "bottom bin"
  },
  {
    "SEQUENCE": "AACUCUGAGAAGGAUAUUCAAUGGGAAACGAUGGAAGAAGGUUUCACAUGAGGAUCACCCAUGUCGAAUAGUGA",
    "ANSWER LABEL": "top bin"
  }
]

The origin of these recorded values is the EternaBench riboswitch data.
